Items are presented alongside their recorded half-life.
- ASSAY_OVERVIEW: Pharmacokinetics in mice following intraperitoneal administration (Table 3)
- Format: in vivo
- MEASUREMENT_CONTEXT: mouse, in vivo, ip, 100 mg/kg
Give a bare numeral; the unit min is implied.

- O=C(O)Cn1cnc2c(=O)[nH]c(Nc3ccccc3)nc21: 26.6

Q: # get_value(readout='half-life', item= O=c1[nH]c(Nc2ccccc2)nc2c1ncn2CC(O)CO (centres unmarked) )
Ans: 17.3

###

- ASSAY_OVERVIEW: Absorption and distribution in mice (Table 2)
- Assay type: in vivo
- MEASUREMENT_CONTEXT: mouse, plasma, ip, mice, in 90% DMSO/H2O
READOUT: half-life (min)
Give a bare numeral; the unit min is implied.

* O=c1[nH]c(Nc2ccccc2)nc2c1ncn2CCO [HE-PG, 9-(2-Hydroxyethyl)-N^2-phenylguanine] | 19

Q: # get_value(readout='half-life', item= O=C(O)Cn1cnc2c(=O)[nH]c(Nc3ccccc3)nc21 [PG-AA, (N^2 -Phenylguan-9-yl)acetic acid] )
Ans: 33

Q: # get_value(readout='half-life', item= O=c1[nH]c(Nc2ccccc2)nc2c1ncn2CCCCO [HB-PG, 9-(4-Hydroxybutyl)-N^2-phenylguanine] )
Ans: 85
